# subject.of.test: Gal(b1-3)GlcNAc(b1-2)Man(a1-3)[GlcNAc(b1-4)][Gal(b1-3)GlcNAc(b1-2)Man(a1-6)]Man(b1-4)GlcNAc(b1-4)GlcNAc
# assay.name: glycan array binding signal (z-score within array); higher = stronger binding
# condition.summary: glycan notation: IUPAC condensed, linker removed
Only a selection was taken, and the strongest signals are over-represented in it overall.
Rule: glycan array binding signal (z-score) of 0.6 or more gives Fulfilled; anything lower gives Not fulfilled.

Some entries whose results are on file:
Enquiry: Entry LecB LY19 (Pseudomonas aeruginosa) (protein) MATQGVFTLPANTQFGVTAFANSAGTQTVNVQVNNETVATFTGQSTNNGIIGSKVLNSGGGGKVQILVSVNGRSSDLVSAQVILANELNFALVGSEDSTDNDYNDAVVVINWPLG : is its glycan array binding signal (z-score) no less than 0.6?
Return: Not fulfilled

Enquiry: In plain terms: is recorded glycan array binding signal (z-score) at least 0.6 for PfulAvr4 (Pseudocercospora fuligena) (protein) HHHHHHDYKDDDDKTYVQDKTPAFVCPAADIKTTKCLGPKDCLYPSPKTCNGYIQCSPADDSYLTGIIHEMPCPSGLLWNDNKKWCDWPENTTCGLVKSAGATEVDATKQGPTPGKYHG ?
Return: Fulfilled

Enquiry: Tell me whether glycan array binding signal (z-score) is at least 0.6 here: Epa1 (Candida glabrata) (protein) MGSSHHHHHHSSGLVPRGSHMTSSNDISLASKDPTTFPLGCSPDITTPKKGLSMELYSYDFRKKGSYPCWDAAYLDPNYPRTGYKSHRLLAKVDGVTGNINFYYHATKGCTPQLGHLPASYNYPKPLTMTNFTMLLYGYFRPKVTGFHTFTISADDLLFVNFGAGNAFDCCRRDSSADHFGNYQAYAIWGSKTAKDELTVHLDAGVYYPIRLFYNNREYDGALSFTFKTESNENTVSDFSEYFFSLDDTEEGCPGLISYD
Return: Not fulfilled

Enquiry: Quick check: does Mg1lysM (Mycosphaerella graminicola) (protein) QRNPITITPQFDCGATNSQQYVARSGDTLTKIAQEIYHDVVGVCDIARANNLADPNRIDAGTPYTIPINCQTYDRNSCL have glycan array binding signal (z-score) greater than or equal to 0.6?
Return: Not fulfilled

Enquiry: Hi, just wondering whether CBM13 2a (Mycobacterium tuberculosum), P64849 (protein) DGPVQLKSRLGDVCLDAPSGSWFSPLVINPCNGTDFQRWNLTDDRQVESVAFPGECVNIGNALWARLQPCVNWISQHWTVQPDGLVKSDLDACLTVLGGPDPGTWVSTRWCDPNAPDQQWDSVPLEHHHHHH shows glycan array binding signal (z-score) of 0.6 or higher.
Return: Not fulfilled

Next:
Enquiry: Given the entry SAOUHSC 02783 (Staphylococcus aureus), Q5HD69 (protein) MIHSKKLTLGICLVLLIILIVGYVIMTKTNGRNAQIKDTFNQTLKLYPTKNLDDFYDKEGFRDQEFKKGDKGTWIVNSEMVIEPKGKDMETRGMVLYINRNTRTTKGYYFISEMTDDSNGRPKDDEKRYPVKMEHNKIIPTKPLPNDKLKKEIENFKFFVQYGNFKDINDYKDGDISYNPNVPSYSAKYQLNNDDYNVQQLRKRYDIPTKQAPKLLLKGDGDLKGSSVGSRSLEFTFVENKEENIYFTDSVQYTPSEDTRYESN , answer whether its glycan array binding signal (z-score) meets or surpasses 0.6.
Return: Fulfilled

Enquiry: I'd appreciate it if you could say whether RBMC1 (Vibrio cholerae) (protein) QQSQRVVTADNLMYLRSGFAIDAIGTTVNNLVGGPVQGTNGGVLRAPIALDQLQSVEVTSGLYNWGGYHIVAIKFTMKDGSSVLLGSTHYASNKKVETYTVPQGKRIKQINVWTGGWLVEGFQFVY has glycan array binding signal (z-score) at least equal to 0.6.
Return: Not fulfilled

Enquiry: Item PfulAvr4 2 (Pseudocercospora fuligena) (protein) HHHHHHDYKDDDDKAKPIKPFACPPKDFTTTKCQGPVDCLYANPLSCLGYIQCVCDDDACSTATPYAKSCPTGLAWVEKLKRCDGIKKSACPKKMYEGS with glycan array binding signal (z-score) of 0.6 or above?
Return: Fulfilled

Enquiry: Quick check: does Flo1 (Saccharomyces cerevisiae), P32768 (protein) SGATEACLPAGQRKSGMNINFYQYSLKDSSTYSNAAYMAYGYASKTKLGSVGGQTDISIDYNIPCVSSSGTFPCPQEDSYGNWGCKGMGACSNSQGIAYWSTDLFGFYTTPTNVTLEMTGYFLPPQTGSYTFKFATVDDSAILSVGGATAFNCCAQQQPPITSTNFTIDGIKPWGGSLPPNIEGTVYMYAGYYYPMKVVYSNAVSWGTLPISVTLPDGTTVSDDFEGYVYSFDDDLSQSNCTVPDPSNY have glycan array binding signal (z-score) greater than or equal to 0.6?
Return: Fulfilled

Enquiry: Item LecB PA14 (Pseudomonas aeruginosa) (protein) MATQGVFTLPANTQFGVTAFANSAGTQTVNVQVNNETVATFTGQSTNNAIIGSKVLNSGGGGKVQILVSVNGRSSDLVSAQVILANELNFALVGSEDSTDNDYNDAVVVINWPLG with glycan array binding signal (z-score) of 0.6 or above?
Return: Not fulfilled

Entry source: the supplement of paper PMC8728848
